ASSAY: Radioligand Binding Assay: Binding of this radioligand was preformed in 5 mL borosilicate glass test tubes at room temperature. Binding was initiated by adding membranes to increasing concentrations of [3H]compound in 100 mMNaCl, 20 mMTrisHCl, pH 7.4 buffer containing 0.01% w/v bovine serum albumin (BSA) for 18 h. Non-specific binding was determined in the presence of 1 uM unlabelled compound. …
Parameters: species or system Homo sapiens
Description: Radioligand Binding Assay: Binding of this radioligand was preformed in 5 mL borosilicate glass test tubes at room temperature. […] Non-specific binding was determined in the presence of 1 uM unlabelled compound. […] [3H]compound bound to filters was quantified by liquid scintillation counting.
pIC50: −log10 of the molar value.
Reported pIC50 by item:
OBSERVED PROPERTY: pIC50

>>> print(df.to_string())
                            molecule_smiles  measured_value
0  O=C(NS(O)(O)C1CC1)c1cc(C2CC2)c(CN2CCC(Oc3ccc(F)cc3Cl)CC2)cc1F            7.85
1  COC[C@H](c1cc(Cl)cc(Cl)c1)N1CCC[C@@H](Oc2cc(F)c(C(=O)NS(C)(=O)=O)cc2C2CC2)C1            8.22
